Measured TGI of individual entries
Tested on: SF-268 CNS
Assay: NCI tumour cell line growth inhibition, 48 h

The following compounds have reported results that may help.
compound: CN(C)CCCNC(=O)N/N=C/c1ccc([N+](=O)[O-])cc1
experimentalResult: > 100 µM

compound: COc1ccc(/C=N/c2nc3cc4sc(/N=C/c5ccc(OC)cc5)nc4cc3s2)cc1
experimentalResult: > 100 µM

Problem: Please report the measured TGI for O=c1[nH]c(=O)n(C2CC(O)C(CO)O2)c2nc3cc4ccccc4cc3nc12 (stereo not drawn)
Solution: > 100 µM

Problem: Please report the measured TGI for [Cl-].[Cl-].[Cl-].[O-]c1cccc2cccnc12.[O-]c1cccc2cccnc12.[O]=[Mo]
Solution: 55.2 µM

Problem: Please report the measured TGI for ClCc1ccc(-c2ccc(Cn3cnc4nc(Cl)nc(Cl)c43)cc2)cc1
Solution: 15.2 µM

Problem: Please report the measured TGI for CC(C)c1cc(Cl)nc(Cl)n1
Solution: > 100 µM

Problem: Please report the measured TGI for Cc1ccc2nc(-c3ccc(N)c(Br)c3)sc2c1
Solution: > 100 µM

Problem: Please report the measured TGI for COc1ccc(-c2cc(=O)c3c(OC)cccc3o2)c(OC)c1OC
Solution: > 100 µM

---

Measured TGI of individual entries
Tested on: PC-3 prostate
Experiment: NCI tumour cell line growth inhibition, 48 h

The following compounds have reported results that may help.
compound: COc1nc(N)c(C#N)c(C#N)c1C#N
TGI: > 10 µM

compound: Nc1nc(-c2ccccc2)c(Cl)c(-c2cc(Cl)ccc2O)n1
TGI: > 100 µM

compound: Cc1cc(S(=O)(=O)n2ccnc2Oc2cccc(Cl)c2)c(SSc2cc(Cl)c(C)cc2S(=O)(=O)n2ccnc2Oc2cccc(Cl)c2)cc1Cl
TGI: > 78.5 µM

Problem: Please report the measured TGI for O=P(O)(NCCCl)NCCCl
Solution: > 100 µM

Problem: Please report the measured TGI for COc1cc(C2SC(N)=Nc3c2c(C)nn3C(=O)c2ccc(Cl)cc2)cc(OC)c1OC (stereo unspecified)
Solution: > 10 µM

Problem: Please report the measured TGI for OC1(c2ccccc2)c2ccccc2NC2=NCCN21 (stereo unspecified)
Solution: > 100 µM

Problem: Please report the measured TGI for CCN(CC)CCOc1ccc(N2C(=O)c3cccc4cc([N+](=O)[O-])cc(c34)C2=O)cc1
Solution: 35.2 µM

Problem: Please report the measured TGI for O=[N+]([O-])c1ccc2c(c1)Sc1ccccc1N2CCCCCl
Solution: > 100 µM

Problem: Please report the measured TGI for Cc1ccc(S(=O)(=O)N/N=C2\CC3C4C=CC3C2C4)cc1 (stereo unspecified)
Solution: > 100 µM

Problem: Please report the measured TGI for COP(=O)(OC)/C(=C/c1c[nH]c2ccccc12)C(=O)O
Solution: > 100 µM

Problem: Please report the measured TGI for CC12CCC(C(Br)(Br)C1=O)C2(C)C (stereo unspecified)
Solution: 7.98 µM

---

Test system: MCF7 breast
Assay: NCI tumour cell line growth inhibition, 48 h
parameterMeasured: TGI

compound: O=c1c2cc(F)ccc2sc2c(N3CCNCC3)nc3ccccc3c12
parameterMeasured: TGI
experimentalResult: 3.27 µM

compound: CC12OC1(C)C1C(=O)OCC1C2=O (stereo unspecified)
parameterMeasured: TGI
experimentalResult: > 100 µM

compound: CCOC(=O)Nn1c(C)nnc1CC#N
parameterMeasured: TGI
experimentalResult: > 100 µM

compound: CCCCc1ccc(Nc2cc(=O)n(C)c(=O)[nH]2)cc1
parameterMeasured: TGI
experimentalResult: 72.9 µM

compound: S=C(S)N1CCN(c2cccc(Cl)c2)CC1
parameterMeasured: TGI
experimentalResult: > 100 µM

compound: c1ccc2c(c1)nc1n2sc2nc3ccccc3n21
parameterMeasured: TGI
experimentalResult: > 100 µM

compound: Cc1cc(C)c(S(=O)(=O)N2CCN(S(=O)(=O)c3c(C)cc(C)cc3C)OCCCCCO2)c(C)c1
parameterMeasured: TGI
experimentalResult: > 100 µM

compound: CCN1CCN(c2cc(C)nc(N(CCNc3ccnc4cc(Cl)ccc34)Cc3ccc4c(c3)OCO4)n2)CC1
parameterMeasured: TGI
experimentalResult: 2.83 µM

compound: CN1CCN(C(=S)N(C(=O)c2cccs2)C2CCCCC2)CC1
parameterMeasured: TGI
experimentalResult: > 100 µM

compound: CN(Cc1cnc2c(n1)C(N)=NN(N)N2)c1ccc(C(=O)NC(CCP(=O)(O)O)C(=O)O)cc1 (stereo unspecified)
parameterMeasured: TGI
experimentalResult: > 100 µM

# context switch: different compound, same TGI
Problem: Please report the measured TGI for N#C/C(=C\c1ccccc1)c1nc(-c2cc3ccccc3oc2=O)cs1
Solution: > 100 µM

---

Measured GI50 of individual entries
Tested on: K-562 leukemia
Test: NCI tumour cell line growth inhibition, 48 h

The following molecules have reported results that may help.
molecule: O=C1C=CC(=O)N1C1CCCCCCCCCCC1
parameterMeasured: GI50
experimentalResult: 2930 nM
//
molecule: CCOC(=O)N1C/C(=C/c2ccc(F)cc2)C(=O)/C(=C/c2ccc(F)cc2)C1
parameterMeasured: GI50
experimentalResult: 754 nM
//
molecule: ClCc1ccc(-c2ccc(Cn3cnc4nc(Cl)nc(Cl)c43)cc2)cc1
parameterMeasured: GI50
experimentalResult: 5590 nM

Problem: Check K-562 leukemia data and give GI50 for C[C@@H]1C[N+]2([O-])[C@H]3C4=CCC[C@@H]4CC[C@H]3[C@@]3(C)OC(=O)CC[C@]34CC[C@H]1[C@@H]42 (some centres not stated) .
Solution: > 60000 nM

Problem: Check K-562 leukemia data and give GI50 for COc1cccc2c1C(=O)c1c(O)c3c(c(O)c1C2=O)C[C@@](O)(C(C)O)C[C@@H]3OC1CC(N)C(O)C(C)O1 (some centres not stated) .
Solution: 2210 nM

Problem: Check K-562 leukemia data and give GI50 for O=C(Nc1ccc(CN2CCOCC2)cc1)c1ccc(-c2cc(Cl)ccc2Cl)o1 .
Solution: 2000 nM

Problem: Check K-562 leukemia data and give GI50 for CN1CCc2c(c3ccccc3c3ccccc23)C1 .
Solution: 3590 nM

---

Test system: CCRF-CEM leukemia
Assay: NCI tumour cell line growth inhibition, 48 h
Measured TGI of individual entries

The following molecules have reported results that may help.
molecule: COc1ccc(C(=O)c2cc(OC)c3c(c2)OCO3)cc1O
TGI: > 100 µM
--
molecule: CCN(CC)CCOc1ccc(N2C(=O)c3cccc4cc([N+](=O)[O-])cc(c34)C2=O)cc1
TGI: 30.8 µM
--
molecule: Nc1ccc2c(c1)C(=O)N(OS(=O)(=O)c1ccccc1)C2=O
TGI: > 100 µM

Problem: Please report the measured TGI for COc1cc(S(=O)(=O)Nc2nc(-c3ccc(N=Cc4cccs4)cc3)cs2)ccc1Cl
Solution: > 100 µM

Problem: Please report the measured TGI for C=C1CCC2C(C)(CO)C(O)CCC2(C)C1CC(O)/C(=C/CO)C(=O)O (configuration not stated)
Solution: > 100 µM

Problem: Please report the measured TGI for COc1cc(C=O)cc(/C=N/c2ccccn2)c1O
Solution: > 100 µM

Problem: Please report the measured TGI for CN1C2CCC1CN(CCOC(c1ccc(F)cc1)c1ccc(F)cc1)C2
Solution: > 100 µM

Problem: Please report the measured TGI for O=C(CC1C(=O)Nc2ccccc2S1=O)Nc1ccccc1 (configuration not stated)
Solution: > 100 µM

---

Test system: MALME-3M melanoma
Assay: NCI tumour cell line growth inhibition, 48 h
Measured GI50 of individual entries

The following compounds have reported results that may help.
compound: O=C1c2ccccc2-c2nnc(-c3ccc(Br)cc3)cc21
GI50: > 100 µM
//
compound: COc1ccc2[nH]c(-c3ccccc3)c(/C=C(\C#N)S(=O)(=O)c3ccccc3)c2c1
GI50: 19.4 µM
//
compound: COc1ccc(C(=O)c2cc(OC)c3c(c2)OCO3)cc1O
GI50: 6.72 µM
//
compound: COc1cccc2c1C(=O)c1c(O)c3c(c(O)c1C2=O)C[C@@](O)(C(C)O)C[C@@H]3OC1CC(N)C(O)C(C)O1 (stereo partly drawn)
GI50: 0.392 µM
//
compound: CCc1ccc(CNCC(O)c2ccccc2)cc1 (stereo not drawn)
GI50: 14.8 µM
//
compound: CC(=O)O[C@H]1CCC2(C)C(=CCC3C2CCC2(C)/C(=N/OC(=O)c4ccc(N(CCCl)CCCl)cc4)CCC32)C1 (stereo partly drawn)
GI50: > 65.4 µM
//
compound: O=C(N/N=C/c1ccccc1O)c1ccccc1O
GI50: 12.6 µM

Problem: Please report the measured GI50 for CC(=O)[CH-]C(C)=O.CC(=O)[CH-]C(C)=O.CC(=O)[CH-]C(C)=O.[In+3]
Solution: > 100 µM

All values here come from PubChem BioAssay (NCI).
